test: In vitro microsomal stability, human; format: in vitro ADME; conditions: 60 min
metric: % of compound remaining when incubated in human liver microsomes with NADPH (%)
Give your result in % as a bare value.

// solved cases for % of compound remaining when incubated in human liver microsomes with NADPH follow
* CC(O)C(O)CCNC(=O)[C@@H]1N[C@H](CC(C)(C)C)[C@]2(C(=O)Nc3cc(Cl)c(F)cc32)[C@H]1c1cccc(Cl)c1 (stereo partly shown) | 8.56
* CC(C)(C)C[C@H]1N[C@@H](C(=O)NC2CC(O)C2)[C@H](c2cccc(Cl)c2F)[C@@]12C(=O)Nc1cc(Cl)ccc12 (stereo partly shown) | 37.55
* CC(C)(C)C[C@H]1N[C@@H](C(=O)N[C@H]2C[C@@H](O)C2)[C@H](c2cccc(Cl)c2F)[C@@]12C(=O)Nc1cc(Cl)ccc12 (stereo in doubt) | 21.5

Query compound follows.
Fill in % of compound remaining when incubated in human liver microsomes with NADPH for record `CC(C)(C)C[C@H]1N[C@@H](C(=O)N[C@H]2C[C@@](C)(O)C2)[C@H](c2cccc(Cl)c2F)[C@@]12C(=O)Nc1cc(Cl)ccc12` 53.21

====

The entries below come with measured pIC50 values attached.
system: cancer cell lines with wild-type p53 / mutated or deleted p53 (ATCC); test: Cell growth assay (WST-8), other cancer cell lines; type: cell-based; settings: Homo sapiens, PC-3, Table 19D; PC3 cells; read-out: PC3 IC50
pIC50: −log10 of the molar value.

// solved cases for pIC50 follow
- CC(C)(C)C[C@H]1N[C@@H](C(=O)N[C@H]2CC[C@@H](N)C2)[C@H](c2cccc(Cl)c2F)[C@@]12C(=O)Nc1cc(Cl)ccc12: < 5.52
- CN1CC[C@@H](NC(=O)[C@@H]2N[C@H](CC(C)(C)C)[C@]3(C(=O)Nc4cc(Cl)ccc43)[C@H]2c2cccc(Cl)c2F)[C@@H](F)C1: < 5.00

Fill in pIC50 for record `CC(C)(C)C[C@H]1N[C@@H](CO)[C@H](c2cccc(Cl)c2)[C@@]12C(=O)Nc1cc(Cl)c(F)cc12` 5.05

Fill in pIC50 for record `CC(C)(C)C[C@H]1N[C@@H](C(=O)NC2CCN(CCC(F)(F)F)CC2)[C@H](c2cccc(Cl)c2F)[C@@]12C(=O)Nc1cc(Cl)ccc12` 5.06

Fill in pIC50 for record `CC(C)(C)C[C@H]1N[C@@H](C(=O)NCC[C@H](O)CO)[C@H](c2cccc(Cl)c2F)[C@@]12C(=O)Nc1cc(F)c(F)cc12` < 5.00

Fill in pIC50 for record `CC(C)(C)C[C@H]1N[C@@H](C(=O)NCC[C@H](O)CO)[C@H](c2ccc(F)c(Cl)c2)[C@@]12C(=O)Nc1cc(F)ccc12` < 5.00

Fill in pIC50 for record `CC(C)(C)C[C@H]1N[C@@H](C(=O)NCC[C@H](O)CO)[C@H](c2ccc(F)c(Cl)c2)[C@@]12C(=O)Nc1cc(F)c(F)cc12` < 5.00

Fill in pIC50 for record `CN1[C@@H](C(=O)NCC[C@H](O)CO)[C@H](c2cccc(Cl)c2)[C@@]2(C(=O)Nc3cc(F)ccc32)[C@H]1CC(C)(C)C` < 5.00

Fill in pIC50 for record `CC(C)(C)C[C@H]1N[C@@H](C(=O)NCC[C@H](O)CO)[C@H](c2cccc(Cl)c2)[C@@]12C(=O)Nc1cc(F)c(F)cc12` < 5.00

Fill in pIC50 for record `CCCN1CCN(CCNC(=O)[C@@H]2N[C@H](CC(C)(C)C)[C@]3(C(=O)Nc4cc(Cl)c(F)cc43)[C@H]2c2cccc(Cl)c2)CC1` 5.32

Fill in pIC50 for record `CN1[C@@H](C(=O)NCC[C@H](O)CO)[C@H](c2cccc(Cl)c2F)[C@@]2(C(=O)Nc3cc(F)c(F)cc32)[C@H]1CC(C)(C)C` < 4.52

Fill in pIC50 for record `CC(C)(C)C[C@H]1N[C@@H](C(=O)N[C@@H]2CCN(CCF)C[C@@H]2F)[C@H](c2cccc(Cl)c2F)[C@@]12C(=O)Nc1cc(Cl)ccc12` < 5.00
